# key: entry, value: pIC50
# measured-target: UniProt P25104
Here pIC50 is given on a logarithmic scale as minus log10 of the concentration in mol/L.

Observed pIC50 on UniProt P25104, entry `CCCNc1cc(=O)n(CCC)c(=O)n1Cc1ccc(-c2ccccc2-c2nn[nH]n2)cc1` , equals 6.47

***
Per the reported UniProt P25104 data, `CCCn1c(=O)cc(OCC)n(Cc2ccc(-c3ccccc3-c3nn[nH]n3)cc2)c1=O` has pIC50 of 7.22

// compound `CCCn1c(=O)cc(SC2CCCCC2)n(Cc2ccc(-c3ccccc3-c3nn[nH]n3)cc2)c1=O` , assay UniProt P25104, pIC50 value: 6.49

Entry `CCCCSc1cc(=O)n(CCC)c(=O)n1Cc1ccc(-c2ccccc2-c2nn[nH]n2)cc1` under UniProt P25104 had pIC50 of 7.40

----------
# measured-target: A-II-receptor (Bos taurus, UniProt P25104)
# Sequence (P25104 whole entry): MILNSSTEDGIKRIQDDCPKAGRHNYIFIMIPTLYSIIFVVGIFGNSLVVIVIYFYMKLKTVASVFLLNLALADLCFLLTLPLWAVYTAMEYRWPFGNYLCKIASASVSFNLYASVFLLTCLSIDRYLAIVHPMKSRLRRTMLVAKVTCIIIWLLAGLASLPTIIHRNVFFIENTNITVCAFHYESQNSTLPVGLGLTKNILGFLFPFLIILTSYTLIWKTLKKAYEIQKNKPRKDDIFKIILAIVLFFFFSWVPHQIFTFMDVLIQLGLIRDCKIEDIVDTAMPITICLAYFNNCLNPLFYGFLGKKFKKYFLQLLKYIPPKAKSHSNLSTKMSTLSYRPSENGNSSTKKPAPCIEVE
Property: pIC50; scope: individual molecules
Convention used: pIC50 is expressed as -log10 of the molar concentration.

Past entries and their recorded results:
The molecule CCCc1cc(=O)n(CCC)c(=O)n1Cc1ccc(-c2ccccc2-c2nn[nH]n2)cc1 [compound 25] , when measured on A-II-receptor (Bos taurus, UniProt P25104), yielded pIC50 of 7.70

Form field pIC50 for item CCCCn1c(=O)cc(Sc2ccccc2)n(Cc2ccc(-c3ccccc3-c3nn[nH]n3)cc2)c1=O [compound 10] on A-II-receptor (Bos taurus, UniProt P25104): 6.49

***
Assay A-II-receptor (Bos taurus, UniProt P25104), sample CCCc1cc(=O)n(CC(=O)OCC)c(=O)n1Cc1ccc(-c2ccccc2-c2nn[nH]n2)cc1 [compound 28] , pIC50 read: 7.70

Form: item CCCCCSc1cc(=O)n(CCC)c(=O)n1Cc1ccc(-c2ccccc2-c2nn[nH]n2)cc1 [compound 6] ; test system A-II-receptor (Bos taurus, UniProt P25104); pIC50: 7.70

Lab note: molecule CCCc1cc(=O)n(CC)c(=O)n1Cc1ccc(-c2ccccc2-c2nn[nH]n2)cc1 [compound 23] tested on A-II-receptor (Bos taurus, UniProt P25104); recorded pIC50 was 7.70
